System: 885512-296-R-J2-PDC complex spheroid viability;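 further: spheroids exposed to agents for 7 days before viability read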
Experiment: Anticancer human tumor 885512-296-R-J2-PDC patient-derived breast carcinoma cell line growth inhibition
Settings: second compound 0.1 µM; first compound 0.316 µM; active compounds read low
From the text: Multicellular complex tumor spheroid response to LSD1 Inhibitor Iadademstat in combination with a variety of drugs and investigational agents in selected tumor cell lines The current study was undertaken to assess response to LSD1 inhibitors in combination with standard-of-care drugs and investigational agents in solid tumor complex spheroid models as well as in the K-562 leukemia. […] Compounds. […] If the clinical Cmax for an agent had not been determined, the highest concentration tested was 10 microM. […]
The entries below are paired with their reported viability, T/C.
Express your answer in %, writing the number without its unit.

Some compounds with recorded viability, T/C:
# Compound, Unit, viability, T/C
measured = [
    ("CC1COCCN1c1cc(C2(S(C)(=N)=O)CC2)nc(-c2ccnc3[nH]ccc23)n1 (stereo unspecified) + NC1CCC(NC2CC2c2ccccc2)CC1", "%", 15.1),
    ("CC(C)c1c(-c2ccccc2)nc2c(C#N)c[nH]n2c1=O + NC1CC1c1ccc(-c2cccc(O)c2)cc1", "%", 127),
]

Measured viability, T/C (885512-296-R-J2-PDC complex spheroid viability), entry CC1COCCN1c1cc(-c2ccnn2C)c2ccnc(-c3ccn[nH]3)c2n1 (stereo unspecified) + NC1CC1c1ccc(-c2cccc(O)c2)cc1 : 2.98

Measured viability, T/C (885512-296-R-J2-PDC complex spheroid viability), entry Nc1ncn(C2CC(O)C(CO)O2)c(=O)n1 (stereo unspecified) + NC1CCC(NC2CC2c2ccccc2)CC1 : 12.7

Measured viability, T/C (885512-296-R-J2-PDC complex spheroid viability), entry COc1cc(Nc2ncc3c(n2)-c2ccc(Cl)cc2C(c2c(F)cccc2OC)=NC3)ccc1C(=O)O + NC1CCC(NC2CC2c2ccccc2)CC1 : 12.3

Ref: PubChem BioAssay AID1918946
